Recorded mass density, one value per entry.
details: 298.15 K; 101.33 kPa; Liquid; Pycnometric method
Report the value in kg/m3 with no unit label.

Worked set:
| compoundStructureString | mass density, kg/m3 |
| --- | --- |
| Cc1ccccc1C | 875.99 |
| Cc1ccc(C)cc1 | 856.58 |
| Cc1ccccc1N | 994.28 |

Now for another entry.
Input line: Query: mass density; subject: Cc1ccccc1
Output line: 862.21
